# measurement target: HLA-A*3002 (human)
# test: inhibition of 125I-labelled probe peptide binding to purified HLA, gel filtration; standard peptide
recorded endpoint: IC50

binder="RISGVDRYY (modifications not checked) [standard peptide …]" recorded_endpoint=IC50 result="3 nM"
